# test-description: A CellTox Green Cytotoxicity Assay to monitor cytotoxicity in HEK293 cells - 40 hour (AID 1224871); further: nearly all actives have a fitted effect of over 45% in size
# reported-conditions: CellTox Green fluorescence; series mostly up to 76.8 µM
Records with an inconclusive call do not appear. Activity calls are given as the source filed them. The call rests on the fitted dose curve; in most records, active means well fitted activation curve with a large enough effect in the repeat runs; inconclusive means weak or mixed curves; inactive means flat fitted curve, though single readings scatter.
Pick one: active, inactive

The following molecules have reported results that may help.
[[record]]
molecule = "COc1ccc([C@@H]2Sc3ccccc3N(CCN(C)C)C(=O)[C@@H]2OC(C)=O)cc1"
group_label = "inactive"

[[record]]
molecule = "N#CCc1cccc(C(F)(F)F)c1"
group_label = "inactive"

[[record]]
molecule = "CCCCCCCCCO"
group_label = "inactive"


Attention now shifts to the item below.
Status in this test for OCC1CC2CC1C1CCC(CO)C21 (centres undefined) ? inactive

* * *

# test-description: qHTS assay for small molecule agonists of the antioxidant response element (ARE) signaling pathway (AID 743202)
# reported-conditions: HepG2 ARE-bla reporter, beta-lactamase FRET, 16 h; series mostly up to 73.3 µM
Records with an inconclusive call do not appear. The source made the active and inactive calls. Calls follow the shape of the dose curve; as a rule, active = well fitted activation curve with a large enough effect in the signal ratio in the repeat runs (not every such curve was filed as active); inconclusive = weak or mixed curves, or effect the other way; inactive = no such curve, though single readings can be large or run the other way; the % refers to the signal ratio.
A correct response names exactly one class from active, inactive

Some solved entries appear below for comparison.
[[record]]
molecule = "Cc1cc(NC(=O)C(=O)O)cc(C)c1Oc1ccc(O)c2c1CCC2"
group_label = "inactive"

[[record]]
molecule = "CCCCCCCCCCCCCCCCCBr"
group_label = "inactive"

[[record]]
molecule = "CCN(CC)CCOC(=O)C1(c2ccccc2)CCCC1"
group_label = "inactive"

[[record]]
molecule = "O=C(O)COC(=O)Cc1ccccc1Nc1c(Cl)cccc1Cl"
group_label = "inactive"

[[record]]
molecule = "Cn1c(N)nc2nc[nH]c2c1=O"
group_label = "inactive"

[[record]]
molecule = "COCCOCCOCCOCCOC"
group_label = "inactive"

[[record]]
molecule = "CCCCOC(=O)c1ccccc1C(=O)OCC(CC)CCCC (stereo unspecified)"
group_label = "inactive"

[[record]]
molecule = "CCOC(=S)SSC(=S)OCC"
group_label = "inactive"


Entry CC(C)CC=O : call = ? inactive

And then COCCO , what is it? inactive

Next entry: O=C(CC(=O)c1ccccc1)c1ccccc1 active

And the next one, CCc1nn(C2CCCCC2)c2cc(C3(C#N)CCC(C(=O)O)CC3)ccc12 (stereo unspecified) ? active

Continue with C[Si](C)O[Si](C)(C)O[Si](C)(C)O[Si](C)C inactive

Would you kindly repeat that for SC1CCCC1 ? inactive

* * *

# test-description: qHTS assay to identify small molecule antagonists of the androgen receptor (AR) signaling pathway - cell viability counter screen (AID 743033; further: nearly all actives have a fitted effect of over 45% in size)
# reported-conditions: AR-bla HEK293 viability, CellTiter-Glo luminescence, 16 h; series mostly up to 58.5 µM
Inconclusive results are not listed. Active and inactive are the calls of the source. The call rests on the fitted dose curve; in most records, active means well fitted cell-killing curve with a large enough effect in the repeat runs; inconclusive means weak or mixed curves; inactive means no such curve, though single readings can be large or run the other way.
Tick one outcome: True for active, False for inactive

Some solved entries appear below for comparison.
[[record]]
molecule = "C=CC(=O)OCC(C)OCC(C)OCC(C)OC(=O)C=C (stereo not given)"
group_label = "True"

[[record]]
molecule = "O=C(O)/C=C/c1cnc[nH]1"
group_label = "False"

[[record]]
molecule = "CCOC(=O)CC(C)C"
group_label = "False"

[[record]]
molecule = "CC[C@]12CCCN3CCc4c(n(c5ccccc45)C(=O)C1)[C@@H]32"
group_label = "False"

[[record]]
molecule = "CC(=O)O[C@@H]1C(=O)O[C@@H]2[C@H]1OC(=O)[C@@H]2OC(C)=O"
group_label = "False"

[[record]]
molecule = "O=C(Cl)c1c(Cl)cccc1Cl"
group_label = "False"

[[record]]
molecule = "CC(C)(C)c1ccc(S)cc1"
group_label = "False"

[[record]]
molecule = "CC(C(=O)O)c1ccc(-c2ccccc2)c(F)c1 (stereo not given)"
group_label = "False"


Identify the outcome logged in this assay for the molecule shown: CC(C)(C)c1ccc(OCC2CO2)cc1 (stereo not given) False

Please give the result for CCCCCCCCCC(=O)OCC too. False

Subsequent entry: O=C(O)c1cccc(N(Cc2cccnc2)c2ccc(OC(F)F)c(OC(F)F)c2)c1 False

Entry to check: CCN(CCO)CCCC(C)Nc1ccnc2cc(Cl)ccc12 (stereo not given) False

CC(C)NCC(O)c1cc(O)cc(O)c1 (stereo not given) , same question. False

What do you get for Cc1ccccc1N=Nc1ccc(N=Nc2c(O)ccc3ccccc23)c(C)c1 ? False

For O=C(O)Cn1c(C(=O)Nc2nc(-c3ccccc3Cl)cs2)cc2ccccc21 then? False

Now try C[Si](C)O[Si](C)(C)O[Si](C)(C)O[Si](C)C . False

Subsequent entry: FC(F)(F)C(F)(F)C(F)(F)C(F)(F)C(F)(F)C(F)(F)CCI False

Further, for COCCCCCCCCOCCC[Si](C)(O[Si](C)(C)C)O[Si](C)(C)C ? True

Another: c1ccc(-c2nc[nH]c2-c2ccccc2)cc1 False

Thanks! And Cc1ccc(C(C)c2ccc(C)c(C)c2)cc1C ? False

Try this molecule too: O=C(c1ccc(O)cc1)c1ccc(O)cc1 False

One more molecule: CC(=O)[C@@]1(O)CC[C@H]2[C@@H]3C[C@H](C)C4=CC(=O)CC[C@]4(C)[C@H]3CC[C@@]21C False

Proceed to CC(=O)OC/C=C/c1ccccc1 False

Also check CC1=CCC(C(C)C)C=C1 (stereo not given) False

Continue with CC(=O)OCCc1ccccc1 False

Please do the same for CCCCCCCCC(CO)CCCCCC (stereo not given) as well. False
